# Assay System: T1, human recombinant CD117 (c-Kit) from Sino Biological (Catalog No. 11996-H08H) (human, UniProt P10721 26-524)
# T1 construct: also called soluble antigen
# T1 sequence (P10721 26-524 limits assumed): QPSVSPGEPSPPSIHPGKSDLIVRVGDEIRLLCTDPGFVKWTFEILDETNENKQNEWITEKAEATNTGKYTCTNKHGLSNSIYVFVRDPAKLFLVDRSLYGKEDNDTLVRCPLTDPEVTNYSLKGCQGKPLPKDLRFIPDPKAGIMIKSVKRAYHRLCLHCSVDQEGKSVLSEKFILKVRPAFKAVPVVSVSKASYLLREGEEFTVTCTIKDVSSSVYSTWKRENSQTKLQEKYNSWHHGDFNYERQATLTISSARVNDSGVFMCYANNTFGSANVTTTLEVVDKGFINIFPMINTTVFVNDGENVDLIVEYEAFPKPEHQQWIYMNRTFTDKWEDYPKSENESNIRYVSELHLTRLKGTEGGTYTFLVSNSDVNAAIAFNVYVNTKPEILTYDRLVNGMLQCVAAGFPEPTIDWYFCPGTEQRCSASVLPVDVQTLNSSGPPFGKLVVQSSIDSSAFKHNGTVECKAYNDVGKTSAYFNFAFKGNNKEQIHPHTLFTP
# Assay Summary: BLI Octet, set-up as in Example 2
pKd: −log10 of the molar value.
Listed here are binders together with their documented pKd.
Measured Metric: pKd

INSERT INTO assay_data (binder, measured_metric, observed) VALUES
  ('Täschhorn (antibody, V domains shown, IgG; also called VH1/VL1.3) VH: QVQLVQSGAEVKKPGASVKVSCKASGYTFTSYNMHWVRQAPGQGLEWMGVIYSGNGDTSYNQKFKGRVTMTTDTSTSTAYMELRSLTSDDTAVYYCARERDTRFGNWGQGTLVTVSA VL: EIVLTQSPSSLSASVGDRVTITCRASESVDIYGRSFMHWYQQKPGKAPKLLIYLASNLESGVPSRFSGSGSGTDFTLTISSLQPEDFATYYCQQNNEDPYTFGQGTKLEIKR', 'pKd', 8.46),
  ('Ludwigshöhe (antibody, V domains shown, IgG; also called VH1/VL1.7) VH: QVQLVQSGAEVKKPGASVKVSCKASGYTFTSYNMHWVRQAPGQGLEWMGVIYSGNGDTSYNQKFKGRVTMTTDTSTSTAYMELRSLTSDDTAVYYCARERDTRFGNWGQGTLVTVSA VL: EIVLTQSPSSLSASVGDRVTITCRASESVDIYGESFMHWYQQKPGKAPKLLIYLASNLESGVPSRFSGSGSGTDFTLTISSLQPEDFATYYCQQNNEDPYTFGQGTKLEIKR', 'pKd', 9.70),
  ('Alphubel (antibody, V domains shown, IgG; also called VH1/VL1.13) VH: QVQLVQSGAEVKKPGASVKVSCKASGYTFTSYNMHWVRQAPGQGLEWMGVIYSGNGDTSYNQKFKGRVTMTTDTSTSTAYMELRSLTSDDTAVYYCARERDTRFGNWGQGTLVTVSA VL: EIVLTQSPSSLSASVGDRVTITCRASESVDIYGNSFMHWYQQKPGKAPKLLIYLASNLESGVPSRFSGSGSGTDFTLTISSLQPEDFATYYCQQNKEDPYTFGQGTKLEIKR', 'pKd', 8.85);
